Data origin, for the record: patent US20150336943A1

- TESTED SYSTEM: dopaminergic receptor D2 (Homo sapiens, UniProt P14416)
- Construct: expressed in transfected cells; host or cells: recombinant human cells (so in the source)
- Sequence (P14416 whole entry): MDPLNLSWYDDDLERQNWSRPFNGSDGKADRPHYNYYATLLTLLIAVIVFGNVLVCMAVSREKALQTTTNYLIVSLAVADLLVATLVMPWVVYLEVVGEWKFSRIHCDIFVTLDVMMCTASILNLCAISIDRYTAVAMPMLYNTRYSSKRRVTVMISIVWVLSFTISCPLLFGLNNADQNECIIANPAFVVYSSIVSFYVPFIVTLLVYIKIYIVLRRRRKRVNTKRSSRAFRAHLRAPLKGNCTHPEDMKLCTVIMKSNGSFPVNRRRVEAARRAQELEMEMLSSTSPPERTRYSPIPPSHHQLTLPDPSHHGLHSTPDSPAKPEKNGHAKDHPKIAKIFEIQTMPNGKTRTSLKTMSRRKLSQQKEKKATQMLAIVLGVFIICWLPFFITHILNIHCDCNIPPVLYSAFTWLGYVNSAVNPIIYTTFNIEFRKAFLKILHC
- PROTOCOL DETAILS: Inhibition constants (Ki) for dopaminergic receptor D2 in recombinant cells
- Type: binding
- MEASUREMENT PARAMETERS: read-out: pKi D2 (converted)
VALUE TYPE: Ki (nM)

The examples below pair each entry with its known result.
>  <SMILES RECORD>
O=C1OC[C@@H](CO)N1CCC1CCN(C[C@H]2COc3c(F)cc(Cl)cc3O2)CC1

>  <Ki [nM]>
1.58

$$$$
>  <SMILES RECORD>
O=C1COCCN1CCC1CCN(C[C@H]2COc3c(F)cc(Cl)cc3O2)CC1

>  <Ki [nM]>
1.66

$$$$
>  <SMILES RECORD>
Cc1ccc2c(c1)O[C@@H](CN1CCC(CCN3C(=O)OC[C@@H]3Cc3ccccc3)CC1)CO2

>  <Ki [nM]>
1.17

$$$$
>  <SMILES RECORD>
O=C1OC[C@H](Cc2ccccc2)N1CCC1CCN(C[C@H]2COc3ccc(OC(F)(F)F)cc3O2)CC1

>  <Ki [nM]>
1.26

$$$$

A. O=C1OC[C@H](Cc2ccccc2)N1CCC1CCN(C[C@H]2COc3ccc(Br)cc3O2)CC1
B. O=C1OC[C@@H](COc2ccccc2)N1CCC1CCN(C[C@H]2COc3ccc(Br)cc3O2)CC1
C. N#Cc1ccc2c(c1)O[C@@H](CN1CCC(CCN3CCOCC3=O)CC1)CO2
D. O=C1OCCN1CCC1CCN(C[C@H]2COc3c(F)cc(F)cc3O2)CC1
QUERY: Sort these compounds on Ki so the largest reading comes first. Show the ranking through the labels, in the order asked for.
RESULT: C, D, A, B
